B1: glmS ribozyme (parent)
chain: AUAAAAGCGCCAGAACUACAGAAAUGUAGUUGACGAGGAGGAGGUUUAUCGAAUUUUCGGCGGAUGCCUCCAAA

variants of: B1; experiment: kcat; higher = faster cleavage; RNA array; conditions: with glucosamine-6-phosphate
Fewer inactive variants are shown than the library holds.
Documented kcat across a set of variants

{"Ordered residues": "AUAAAAGCGCCAGAACUACAGAAAUGUAGUGGACUAGGAGGAGGUUUAUCGAAUUUUCGGCGGAUGGCUCCAAA [U31G G35U C67G]", "Sign qualifier": "<", "kcat (s⁻¹)": "1e-05"}
{"Ordered residues": "AUAAAGGCGCCAGAACUACAGAAAUGUAGUUUACGAGGAGGAGGUUUAUCGAAUUUUCGGCGGAUGCCUCCAAA [A6G G32U]", "Sign qualifier": "<", "kcat (s⁻¹)": "1e-05"}
{"Ordered residues": "AUAAAAGCGCCAGAACUACAGAAAUGUAGUUGACGUGUAGGAGGUUUAUCGAAUUUUCGGCGGAUGCCUCCAAA [A36U G38U]", "Sign qualifier": "<", "kcat (s⁻¹)": "1e-05"}
{"Ordered residues": "AUAAAAGCGCCAGAAUUACAGAAAUGUAGUUGACGAGGAGGAGGUUUAUCGAAUUUUCGGCGGAUGCCUCCAAA [C16U]", "Sign qualifier": "=", "kcat (s⁻¹)": 0.0542}
{"Ordered residues": "AUAAAAGCGCCAGAACUACAGAAAUGUAGUUGACGAGGAGGAGGUUUAUCGAAUUUUCGGCGGACGCCUCUAAA [U65C C71U]", "Sign qualifier": "=", "kcat (s⁻¹)": 0.000792}
{"Ordered residues": "AUAAAAGCGCCCGAACUACAGAAAUGUAGUUGACGAGGAGGAGAUUUAUCGAUUUUUCGGCGGAUGCCUCCAAA [A12C G44A A53U]", "Sign qualifier": "=", "kcat (s⁻¹)": 0.000479}
{"Ordered residues": "AUAAAAGCGCCAAAACUACAGAAAUGUAGUUGACGAUGAGGAGGUUUAUCGAAUUUUCGGCGGAUGCCUCCAAA [G13A G37U]", "Sign qualifier": "=", "kcat (s⁻¹)": "1.65e-05"}
{"Ordered residues": "AUAAAAGCGCCAAAACUACAGAAAUGUAGUUGACGAGGAGGAGGUUUAUCGAAUUUUCGGCGGAUGGCUCCAAA [G13A C67G]", "Sign qualifier": "=", "kcat (s⁻¹)": "2.66e-05"}
{"Ordered residues": "AUAAAAGCGCCAGAACUACAGAAAUGUAUUUGACGUGGAGGAGGUUUAUCGAAUUUUCGGCGGAUGCCUCCAAA [G29U A36U]", "Sign qualifier": "<", "kcat (s⁻¹)": "1e-05"}
{"Ordered residues": "AUAAAAGCGCCAGAACUACAGAAAUGUAGUUGACGAGGAGGAGAUUUAUCGAAUUUUCGGCGGAUGCCUCCAAA [G44A]", "Sign qualifier": "=", "kcat (s⁻¹)": 0.00053}
{"Ordered residues": "AUAAAAGCGCCAGAACUACAGAAAUGUAGUUGACGAGGAUGAGGUUUAUCGAAUUUACGGCGGAUGCCUCCAAA [G40U U57A]", "Sign qualifier": "=", "kcat (s⁻¹)": "6e-05"}
{"Ordered residues": "AUAAAAGCGCCAGAACUACAGAAAUGUAGGUGACGAGGAUGAGGUUUAUCGAAUUUUCGGCGGAUGCCUCCAAA [U30G G40U]", "Sign qualifier": "=", "kcat (s⁻¹)": 0.000787}
{"Ordered residues": "AUAAAAGCGCCAGAACUACAGAAAUGUAGUUGACGAGGAGGAGGUUUUUCGAAUUUUCGGCGGUUGCCUCCAAA [A48U A64U]", "Sign qualifier": "=", "kcat (s⁻¹)": 0.000129}
{"Ordered residues": "AUAAAAGCGCCAGAACUACAGAAAUGUAGUUGACGAGGAGGAGGUUUAACGAAUUUUCGGCGGAUGCCACCAAA [U49A U69A]", "Sign qualifier": "=", "kcat (s⁻¹)": "5.14e-05"}
{"Ordered residues": "AUAAAAGCGCCAGAACUACAGAAAUGUACUUGACGAGGAGGAGGUUUAUCGAAUUUUCGGCGGAUGGCUCCAAA [G29C C67G]", "Sign qualifier": "=", "kcat (s⁻¹)": "8e-05"}
{"Ordered residues": "AUAAAAGCGCCAGCACUACAGAAAUGUAGUCGACGAGGAGGAGGUUUAUCGAAUUUUCGGCGGAUGCCUCCAAA [A14C U31C]", "Sign qualifier": "=", "kcat (s⁻¹)": 0.00408}
{"Ordered residues": "AUAAAAGCGCCAGAGCUACAGAAAUGUAGUUCACGAGGAGGAGGUUUAUCGAAUUUUCGGCGGAUGGCUCCAAA [A15G G32C C67G]", "Sign qualifier": "=", "kcat (s⁻¹)": "1.35e-05"}
{"Ordered residues": "AUAAAAGCGCCAGAACUACAGAAAUGUAGUUGACGAGGAGGAGGUUUAUCGAAAUUUCGGCGGAUGCGUCCAAA [U54A C68G]", "Sign qualifier": "=", "kcat (s⁻¹)": "9.86e-05"}
{"Ordered residues": "AUAAAAGCGCCAGAACUACAGAAAUGUAGUUGACGAGGAGGAGGUUUAUAGAAUUUUCGGUGGAUGCCUCCAAA [C50A C61U]", "Sign qualifier": "<", "kcat (s⁻¹)": "1e-05"}
{"Ordered residues": "AUAAAAGCGCCAGAACUACAGAAAUGUAGUUAACGAGGAGGAGGAUUAUCGAAUUUUCGGCGGAUGCCUCCAAA [G32A U45A]", "Sign qualifier": "=", "kcat (s⁻¹)": 0.00555}
{"Ordered residues": "AUAAAAGCGCCAGAACUACAGAAAUGUAGUCGACGAGGAGGAGGUUUAUCGUAUUUUCGGCGUAUGCCGCCAAA [U31C A52U G63U U69G]", "Sign qualifier": "=", "kcat (s⁻¹)": "1.91e-05"}
{"Ordered residues": "AUAAAAGCGCCAGAACUACAGAAAUGUAGUUGACGAGGAGGAGUUUUAUCGAGUUUUCGGCGGAUGCCUCCAAA [G44U A53G]", "Sign qualifier": "=", "kcat (s⁻¹)": 0.000308}
{"Ordered residues": "AUAAACGCGCCAGAACUACAGAAAUGUAGUUGACGAGGAGGAGGUUUAUCGAAUUUUCGGCGGAUGCCCCCAAA [A6C U69C]", "Sign qualifier": "=", "kcat (s⁻¹)": "3.1e-05"}
{"Ordered residues": "AUAAAAGCGCCAGAACUACAGAAAUGUAUUUGACGAGGAGGAGGUUUAUCGAAUUUUCUGCGGAUGCCUCCAAA [G29U G59U]", "Sign qualifier": "<", "kcat (s⁻¹)": "1e-05"}
{"Ordered residues": "AUAAAAGCGCCAGAAGUACAGAAAUGUAGUUGACGAGGGGGAGGUUUAUCGAAUUUUCGGCGGAUGCCUCCAAA [C16G A39G]", "Sign qualifier": "=", "kcat (s⁻¹)": 0.0108}
{"Ordered residues": "AUAAAAGCGCCAGAACUACAGAAAUGUAGUUGACGAGGAGGAGGUUUAACGAAUUUUCUGCGGAUGCCUCCAAA [U49A G59U]", "Sign qualifier": "=", "kcat (s⁻¹)": "1.28e-05"}
{"Ordered residues": "AUAAAAGCGCCAGAACUACAGAAAUGUAGUUGACGAGGAGGAGGUUUAUCGAAGUUUCGGCGGAUGCCUCGAAA [U54G C71G]", "Sign qualifier": "=", "kcat (s⁻¹)": 0.00104}
{"Ordered residues": "AUAAAAGCGCCAGAACUACAGAAAUGUAGUUGCCGAGGCGGAGGUUUAUCGAAUUUUCGGCGGAUGCCUCCAAA [A33C A39C]", "Sign qualifier": "=", "kcat (s⁻¹)": "3.87e-05"}
{"Ordered residues": "AUAAAAGCGCCAGAGCUACAGAAAUGUAGUUCACGAGGAGGAGGUUUAUCGAAUUUUCGGCGGAUGCCUCCAAA [A15G G32C]", "Sign qualifier": "=", "kcat (s⁻¹)": 0.000278}
{"Ordered residues": "AUAAAAGCGCCAGAACUACAGAAAUGUAGUUGACGAGGUGGAGGUUUAUCGAAUUUGCGGCGGAUGCCUCCAAA [A39U U57G]", "Sign qualifier": "=", "kcat (s⁻¹)": "2.55e-05"}
{"Ordered residues": "AUAAAAGCGCCAGAACUACAGAAAUGUAGUGGACGAGGAGAAGGUUUAUCGAAUUUUCGGCGGAUGCCUCCAAA [U31G G41A]", "Sign qualifier": "=", "kcat (s⁻¹)": 0.000638}
{"Ordered residues": "AUAAAUGCGCCAGAACUACAGAAAUGUAGUUGACGAGGUGGAGGUUUAUCGAAUUUUCGGCGGAUGCCUUCAAA [A6U A39U C70U]", "Sign qualifier": "=", "kcat (s⁻¹)": "6.69e-05"}
{"Ordered residues": "AUAAAAGCGCCAGAACUACAGAAAUGUAGUUGACGAGGAAGAGGUUUAGCGAAUUUUCGGCGGAUGCCUCCAAA [G40A U49G]", "Sign qualifier": "=", "kcat (s⁻¹)": 0.000121}
{"Ordered residues": "AUAAAAGCGCCAGAACUACAGAAAUGUAGUUGACGAGGAGGAGGUUUAUUGAAUUUUCGGCGGAUGCCUCCAAA [C50U]", "Sign qualifier": "=", "kcat (s⁻¹)": 0.000131}
{"Ordered residues": "AUAAAAGCGCCAGAACUACAGAAAUGUAGUUGACGAGGCGGGGGUUUAUCGAAUUUUCGGCGGAUGCCUCCAAA [A39C A42G]", "Sign qualifier": "=", "kcat (s⁻¹)": 0.00493}
